Data credit: patent US5922554A

Entries and their FC Influx values follow.
# Test system: fibroblast monolayers
# measurement-notes: Influx/uptake of ^3 H-FC (free cholesterol) from labeled LDL (or plasma, HDL) into normal fibroblast monolayers
# Assay type: cell-based, human
# details: LDL-FC 60.2 μg ml^-1, 60 min, 37° C.; 30 min preequilibration with inhibitor at: Na-azide 1 mM, NH4-vanadate 1 mM, NEM 2 mM, KNO3 50 mM, progesterone 30 μM, forskolin 30 μM, IBMX 100 μM, chloroquine 20 μM
Please reply with the bare figure in µg and do not write the unit itself.

CC(C)Cn1c(=O)n(C)c(=O)c2[nH]cnc21    1.46
C=C[C@@]1(C)CC(=O)[C@]2(O)[C@@]3(C)[C@@H](O)CCC(C)(C)[C@@H]3[C@H](O)[C@H](OC(C)=O)[C@@]2(C)O1    1.39
CCN(CC)CCCC(C)Nc1ccnc2cc(Cl)ccc12 (centres unmarked)    1.34
[N-]=[N+]=[N-].[Na+] [Na-azide]    1.18

Let's switch to this molecule now.
Data request: Endpoint output: FC Influx of CCN1C(=O)C=CC1=O [N-ethylmaleimide] . Value?
Data returned: 0.40

###

Consider the following compounds and their measured FC Influx readings.
# System: fibroblast monolayers
# measurement-notes: Influx/uptake of ^3 H-FC (free cholesterol) from labeled LDL (or plasma, HDL) into normal fibroblast monolayers
# Type: cell-based, human
# details: LDL-FC 60.2 μg ml^-1, 60 min, 37° C.; 30 min preequilibration with inhibitor at: Na-azide 1 mM, NH4-vanadate 1 mM, NEM 2 mM, KNO3 50 mM, progesterone 30 μM, forskolin 30 μM, IBMX 100 μM, chloroquine 20 μM
I only need the number, in µg, no unit after it.

Some solved cases for reference:
O=[N+]([O-])[O-].[K+] [KNO3]    0.28
CC(=O)[C@H]1CC[C@H]2[C@@H]3CCC4=CC(=O)CC[C@]4(C)[C@H]3CC[C@]12C [Progesterone]    1.28

Data request: Any idea what its FC Influx is? The compound is [NH4+].[O]=[V](=[O])[O-] [NH4 -vanadate]
Data returned: 1.36
